- System Tested: Cytochrome P450 1B1 (Homo sapiens, UniProt Q16678)
- Sequence (Q16678 whole entry): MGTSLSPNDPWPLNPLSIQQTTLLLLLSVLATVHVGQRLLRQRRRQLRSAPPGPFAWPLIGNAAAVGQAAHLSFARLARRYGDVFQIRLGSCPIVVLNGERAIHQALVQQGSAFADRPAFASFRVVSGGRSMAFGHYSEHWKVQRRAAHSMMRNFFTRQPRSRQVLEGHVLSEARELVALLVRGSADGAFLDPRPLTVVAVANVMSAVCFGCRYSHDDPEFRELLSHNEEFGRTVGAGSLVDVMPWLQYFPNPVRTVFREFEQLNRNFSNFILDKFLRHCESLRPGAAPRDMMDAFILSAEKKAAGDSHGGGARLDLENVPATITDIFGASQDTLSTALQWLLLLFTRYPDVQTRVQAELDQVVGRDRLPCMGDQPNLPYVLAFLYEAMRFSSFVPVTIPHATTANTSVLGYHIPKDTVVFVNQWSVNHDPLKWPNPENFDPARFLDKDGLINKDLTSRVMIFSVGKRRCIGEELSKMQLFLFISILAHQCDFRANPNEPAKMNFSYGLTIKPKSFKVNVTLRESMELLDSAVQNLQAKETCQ
- Test Method Notes: Inhibition of human CYP1B1 over-expressed in CHO cells preincubated for 3 hrs followed media replacement containing estradiol without compound measured after 3 hrs
- Assay type: cell-based
Measure: IC50
Write the quantity with the unit trailing the number.

Exercise: Field request: IC50 | item: "O=C1c2cccc3c(Br)ccc(c23)C(=O)N1Cc1cncnc1"
Key: 470 pM

###

- System Tested: UniProt Q16678
- Test Method Notes: Inhibition of recombinant human CYP1B1 using 7-ER as substrate in presence of NADPH by fluorescence based assay
Measure: IC50

Known results for compounds:
>>> df
                                   compound  measure  observed_value
0  O=C1c2cccc3c(Br)ccc(c23)C(=O)N1CCCCc1ccccc1     IC50         57.3 nM
1  O=C1c2cccc3c(Br)ccc(c23)C(=O)N1Cc1c[nH]cn1     IC50          173 nM
2  O=C1c2cccc3c(Br)ccc(c23)C(=O)N1CC1CCCCC1     IC50         7.99 nM
3     O=C1c2cccc3c(Br)ccc(c23)C(=O)N1CC1CC1     IC50         19.2 nM
4          CCN1C(=O)c2cccc3c(O)ccc(c23)C1=O     IC50       > 1000 nM
5  O=C1c2cccc3c(Br)ccc(c23)C(=O)N1Cc1cccnc1     IC50         1.81 nM
6   O=C1c2cccc3c(Br)ccc(c23)C(=O)N1CC1CCCC1     IC50         11.7 nM
7         CCN1C(=O)c2cccc3c(Br)ccc(c23)C1=O     IC50         5.63 nM

Exercise: Requested read-out: IC50. Entry: "CCN1C(=O)c2cccc3cccc(c23)C1=O"
Key: 605 nM

Exercise: Any idea what its IC50 is? The compound is "O=C1c2cccc3c(Br)ccc(c23)C(=O)N1Cc1ccccn1"
Key: 148 nM

Exercise: So what does the record say about IC50 for "O=C1c2cccc3c(Br)ccc(c23)C(=O)N1Cc1ncco1" ?
Key: 31 nM

###

- System Tested: Cytochrome P450 1B1 (Homo sapiens)
- Test Method Notes: Inhibition of recombinant human CYP1B1 using 7-ER as substrate in presence of NADPH by fluorescence based assay
Measure: IC50 (nM)
Please give a number only; it is taken to be in nM.

// below: answered molecules
In [3]: df
Out[3]:
                              record_smiles  measure  observed_value
0  O=C1c2cccc3c(Br)ccc(c23)C(=O)N1CCc1ccccc1     IC50            5.36
1  O=C1c2cccc3c(Br)ccc(c23)C(=O)N1Cc1cncnc1     IC50            0.04
2   O=C1c2cccc3c(O)ccc(c23)C(=O)N1Cc1cncnc1     IC50            56.6
3   Nc1ccc2c3c(cccc13)C(=O)N(Cc1cncnc1)C2=O     IC50            67.1
4  O=C1c2cccc3c(Br)ccc(c23)C(=O)N1Cc1ncccn1     IC50            91.7
5         CCN1C(=O)c2cccc3ccc(Br)c(c23)C1=O     IC50            3.52
6  O=C1c2cccc3c(Br)ccc(c23)C(=O)N1Cc1ccccc1     IC50            1.95
7   O=C1c2cccc3c(Br)ccc(c23)C(=O)N1Cc1cccs1     IC50            3.42
8  O=C1c2cccc3c(Br)ccc(c23)C(=O)N1Cc1cc[nH]n1     IC50            17.6
9  O=C1c2cccc3c(Br)ccc(c23)C(=O)N1CCCc1ccccc1     IC50            16.8

Exercise: Tell me the measured IC50 of "O=C1c2cccc3c(Br)ccc(c23)C(=O)N1Cc1ccncc1" , please.
Key: 1.42

Exercise: Which IC50 is reported for this molecule? "O=C1c2cccc3c(Br)ccc(c23)C(=O)N1CC1Oc2ccccc2O1"
Key: 12
